# Test system: PHBPU
# assay-remarks: Pre-emergence action against PHBPU
# Format: in vivo, Pharbitis purpurea
# test-conditions: Dosage 320 g/ha, pre-emergence
measured-metric: Pre-emergence action against PHBPU (%)
Give the quantity in %, number only.

Consider the reported Pre-emergence action against PHBPU for these compounds:
>  <compound>
Cc1c(C(=O)Nc2nnnn2C)ccc(C(F)(F)F)c1C(=O)CCl

>  <system-name>
PHBPU

>  <value-unit>
%

>  <Pre-emergence action against PHBPU>
90

$$$$
>  <compound>
CCn1nnnc1NC(=O)c1ccc(Cl)c(C(=O)C2CC2)c1Cl

>  <system-name>
PHBPU

>  <value-unit>
%

>  <Pre-emergence action against PHBPU>
90

$$$$

Query string: Quick one: Pre-emergence action against PHBPU for CCn1nnnc1NC(=O)c1ccc(C(F)F)c(C(=O)C2CC2)c1Cl ?
Result string: 80

Query string: Try CCn1nnnc1NC(=O)c1ccc(C(F)(F)F)c(C(=O)CCl)c1C next.
Result string: 80

Query string: Try CCn1nnnc1NC(=O)c1ccc(C(F)F)c(C(=O)C2CC2)c1SC next.
Result string: 90

Query string: Try CCCn1nnnc1NC(=O)c1ccc(C(F)F)c(C(C)=O)c1SC next.
Result string: 100

Query string: Try CCn1nnnc1NC(=O)c1ccc(C(F)(F)F)c(C(=O)C(F)F)c1Cl next.
Result string: 100

Data credit: patent US11051515B2
